- experiment: Evaluation on pharmacokinetics of compound in SD rats
- Assay type: in vivo
- protocol.conditions: male, Sprague-Dawley, rat, plasma, oral administration, read-out: Bioavailability F
test.readout: bioavailability (%)
Respond numerically; units are % and should not be typed.

**Query** // fetch bioavailability given entry `Cn1c(=O)n(C[C@H]2CC[C@@](C)(O)CC2)c(=O)c2c1ncn2CC1CC1`
**Result** 47.9

###

- experiment: Solubility of crystal form A in different solvents
- Type: physicochemical
- protocol.conditions: organic solvent or mixture, thermodynamic from solid; Ethanol, room temperature
test.readout: solubility

**Query** Report measured solubility; entry is Cn1c(=O)n(C[C@H]2CC[C@@](C)(O)CC2)c(=O)c2c1ncn2CC1CC1 [Crystal Form A]
**Result** ~11.2 mg/mL
